Assignment: determine reported GI50 for the given compounds.
Tested on: NCI-H460 lung

Worked examples follow.
- mol: "O=C(c1cccs1)c1c(C(F)(F)F)n([O-])c2cc(C(F)(F)F)ccc2[n+]1=O"
  assay-target: "NCI-H460 lung"
  GI50: "0.198 µM"
- mol: "CC1=Cc2cc3[n-]c(cc4nc(cc5[n-]c(cc1n2)c(C)c5CCC(=O)O)C(CCC(=O)O)=C4C)cc3C.[Cu+2]"
  assay-target: "NCI-H460 lung"
  GI50: "> 100 µM"
- mol: "CN1CCN(CCCOc2ccc3ncnc(Nc4ccc(Oc5cccc(C(F)(F)F)c5)c(Cl)c4)c3c2)CC1"
  assay-target: "NCI-H460 lung"
  GI50: "1.73 µM"

# return GI50 for each item in the list
1. CC(=O)[CH-]C(C)=O.CC(=O)[CH-]C(C)=O.CC(=O)[CH-]C(C)=O.[Cl-].[Hf+4]
2. N#Cc1c(SCc2ccccc2)nc2[nH]c(=S)[nH]c(=S)c2c1-c1ccco1

a:
1. > 100 µM
2. 32.3 µM

* * *

Assignment: determine reported TGI for the given molecules.
Test system: SK-MEL-2 melanoma
assay-name: NCI tumour cell line growth inhibition, 48 h

# return TGI for each item in the list
1. CC(=O)NNc1nc(C)c(C(/C=C/c2ccccc2O)=N/NC(=O)c2ccncc2)s1
2. CO/C=C/c1cc2c(cc1C(OC)OC)OCO2
3. Nc1c(C(=O)Nc2cccc3ccccc23)sc2nc3c(cc12)CCCCC3
4. CCOP(=O)(CCC(O)CNc1nc(N)nc(Cl)c1N=Nc1ccc(Cl)cc1)OCC (stereo unspecified)
5. N#CCc1[nH]nc2nc(SCc3ccccc3)nc(N3CCCCC3)c12
6. O=C(O)C(Cc1ccccc1)N1C(=O)c2ccccc2C1=O (stereo unspecified)

a:
1. > 100 µM
2. > 100 µM
3. > 50 µM
4. 24.3 µM
5. 39.3 µM
6. > 100 µM

* * *

Assignment: determine reported TGI for the given compounds.
System: SN12C renal
assay-name: NCI tumour cell line growth inhibition, 48 h

Worked examples follow.
- compound: "CNC(=O)C(C)NC(=O)C(Cc1ccccc1)NC(=O)OC(C)(C)C (stereo not drawn)"
  TGI: "> 100 µM"
- compound: "N=c1oc2cc(O)c(O)cc2cc1C(N)=O"
  TGI: "> 100 µM"
- compound: "CCN(CC)/C(=C\\Cl)Nc1ccccn1"
  TGI: "> 100 µM"
- compound: "CN(C)Cc1cc(C(=O)/C=C/c2c(Cl)cccc2Cl)cc(CN(C)C)c1O"
  TGI: "21 µM"
- compound: "CCCN(CCC)C(=S)N/N=C/c1cccc(C)n1"
  TGI: "3.13 µM"
- compound: "CCOC(=O)Cc1nc2nn(Cc3ccccc3)cc2c(=O)[nH]1"
  TGI: "> 100 µM"
- compound: "N#CC(c1ccc(Cl)cc1)c1cccc(Cl)n1 (stereo not drawn)"
  TGI: "> 100 µM"
- compound: "COc1c(C(=O)O)cccc1-c1cccc(C(=O)NCCN(CCNC(=O)c2cccc(-c3cccc(C(=O)O)c3OC)c2OC)CCNC(=O)c2cccc(-c3cccc(C(=O)O)c3OC)c2OC)c1OC"
  TGI: "89.9 µM"

# return TGI for each item in the list
1. COc1ccccc1NC(=S)Nc1cccc(C)n1
2. CC(C)CC(NC(=O)OCc1ccccc1)C(=O)NCCCCC(N)C(=O)NC(CCCCNC(=O)C(CC(C)C)NC(=O)OCc1ccccc1)C(=O)NC(CCCCNC(=O)C(CC(C)C)NC(=O)OCc1ccccc1)C(=O)NC(CCCCNC(=O)C(CC(C)C)NC(=O)OCc1ccccc1)C(=O)NC(CCCCNC(=O)C(CC(C)C)NC(=O)OCc1ccccc1)C(=O)NC(CCCCNC(=O)C(CC(C)C)NC(=O)OCc1ccccc1)C(=O)O (stereo not drawn)
3. COc1c(C(CC(C)C)OC(C)=O)ccc2c1C(=O)OCc1cc(C)cc(O)c1O2 (stereo not drawn)
4. C/C=C/C/C=C/CCC(=O)C1OC1C(N)=O (stereo not drawn)
5. O=C(CSc1nnc(-c2ccc(N=Cc3ccc(Cl)cc3)cc2)o1)Nc1ccccc1
6. C#CCOC(=O)C(N)CS (stereo not drawn)

a:
1. > 100 µM
2. > 100 µM
3. 27.2 µM
4. 39.8 µM
5. > 100 µM
6. > 100 µM
